System: Neurokinin 3 receptor (Cavia porcellus)
Assay: Equilibrium binding affinity to guinea pig NK3 receptor A1142.58T mutant expressed in HEK293 cells
measured.property: pKd
Convention used: pKd is expressed as -log10 of the molar concentration.

query: I would be grateful if you could share the reported pKd for `CC(=O)N(C)C1(c2ccccc2)CCN(CCC[C@]2(c3ccc(Cl)c(Cl)c3)CCCN(C(=O)c3ccccc3)C2)CC1` .
result: 10.10

###

Target: Substance-P receptor (Homo sapiens)
Sequence (P25103 whole entry): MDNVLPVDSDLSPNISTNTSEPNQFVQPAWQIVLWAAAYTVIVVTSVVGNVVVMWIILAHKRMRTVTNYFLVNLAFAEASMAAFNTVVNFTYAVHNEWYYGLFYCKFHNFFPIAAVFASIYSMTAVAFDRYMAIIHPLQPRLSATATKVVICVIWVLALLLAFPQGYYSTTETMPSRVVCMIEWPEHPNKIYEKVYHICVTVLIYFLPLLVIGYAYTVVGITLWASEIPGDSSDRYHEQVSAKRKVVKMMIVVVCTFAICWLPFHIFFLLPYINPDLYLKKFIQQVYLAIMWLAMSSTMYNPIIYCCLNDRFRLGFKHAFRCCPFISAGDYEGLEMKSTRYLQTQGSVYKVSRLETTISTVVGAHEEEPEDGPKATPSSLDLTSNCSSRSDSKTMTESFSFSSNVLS
Assay: Displacement of [3H]substance P from human recombinant NK1 receptor expressed in HEK293 cells
measured.property: pKi
Here pKi is given on a logarithmic scale as minus log10 of the concentration in mol/L.

query: Form field: reported pKi of CC(=O)N(C)C1CCN(CCC(C)(C(=O)N(C)Cc2ccc(F)c(C(F)(F)F)c2)c2ccc(Cl)c(Cl)c2)CC1 (stereo not drawn)
result: 6.82

query: Try this compound next: CC(=O)N(C)C1CCN(CCC(C)(C(=O)N(C)Cc2ccccc2Cl)c2ccc(Cl)c(Cl)c2)CC1 (stereo not drawn)
result: 7.15

query: What about this compound? CN(Cc1ccc(F)c(C(F)(F)F)c1)C(=O)C(C)(CCN1CCC(N2CCCC2=O)CC1)c1ccc(Cl)c(Cl)c1 (stereo not drawn)
result: 6.74

Origin of the recorded values: ChEMBL document CHEMBL1154606
